The measured values listed here are drawn from ChEMBL document CHEMBL4303101.

# Tested on: Caco-2
# measurement-setup: human, caco-2, 48 h
measured-quantity: CC50 (µM)
State just the number; it will be interpreted in µM.

Need CC50 of THIMEROSAL , thanks.
13.5

---

# assay: in vitro
# measurement-setup: human, Caco-2 cells
Classification field. Basis: CC50 at 48 h. Definitions: L (below 4 µM), M (4 µM to below 20 µM), H (20 µM or more)

Form: Item = Nc1nc2c(ncn2[C@@H]2O[C@H](CO)[C@@H](O)[C@H]2O)c(=S)[nH]1 ; Class = ?
L

Could you do the same for CCOC(=O)c1ncc2[nH]c3ccc(OCc4ccccc4)cc3c2c1COC , please?
L

Could you do the same for COc1cc2ncc(-c3ccccc3)nc2cc1OC , please?
L

Could you do the same for CCS(=O)(=O)N(Cc1cccnc1)c1cccc(-c2ccc(C#N)cc2)c1 , please?
M

Could you do the same for Cc1cccc2c1CC[C@H](CN1CCC(c3c(Cl)cccc3Cl)CC1)C[C@@H]2O , please?
L

Could you do the same for Cn1cc(-c2ccc3c(c2)CCN3C(=O)Cc2cccc(C(F)(F)F)c2)c2c(N)ncnc21 , please?
H

Could you do the same for C=C(c1ccccc1OCc1cccc(Cl)c1)n1ccnc1 , please?
H

Could you do the same for CCCCCCCCCCCCCCCCCC[S+](CCC)c1ccccc1C(=O)OCC (stereo not given) , please?
L

Could you do the same for N=C(Nc1ccc(I)cc1)NC1C2CC3CC(C2)CC1C3 (stereo not given) , please?
M

Could you do the same for CCCCCCCCCCCCOCCOCCOCCOCCOCCOCCOCCOCCOCCO , please?
M

Could you do the same for C/C(=N\NC(=S)N1CCC1)c1ccccn1 , please?
L

Could you do the same for Cc1nn(C)c2nc(NNC(=O)Nc3cc(Cl)nc(Cl)c3)cc(C(C)C)c12 , please?
M

Could you do the same for CC1=C(CCC(=O)O)c2cc3nc(cc4[nH]c(cc5[nH]c(cc1n2)c(C)c5C(C)O)c(C)c4C(C)O)C(C)=C3CCC(=O)O (stereo not given) , please?
H

Could you do the same for FC(F)(F)Oc1ccc2nc(-c3ccc(OCCOCCOc4ccc(-c5nc6ccc(OC(F)(F)F)cc6[nH]5)nc4)cn3)[nH]c2c1 , please?
M

Could you do the same for CCCC[C@@]1(C2CCCC2)Cc2cc(OCCCC(=O)O)c(Cl)c(Cl)c2C1=O , please?
H

Could you do the same for Nc1nccc(-c2c(-c3ccc(F)cc3)ncn2C2CCCCC2)n1 , please?
M

Could you do the same for CC(C)(C)c1ccc(/C=C/C(=O)Nc2ccc3c(c2)OCCO3)cc1 , please?
M

Could you do the same for COC(=O)C[C@@](O)(CCC(C)(C)O)C(=O)O[C@@H]1C(OC)=C[C@]23CCCN2CCc2cc4c(cc2[C@@H]13)OCO4 , please?
L

Could you do the same for CCC(CC)COC(=O)[C@H](C)N[P@](=O)(OC[C@H]1O[C@@](C#N)(c2ccc3c(N)ncnn23)[C@H](O)[C@@H]1O)Oc1ccccc1 , please?
H

Could you do the same for C/C=C/C[C@@H](C)[C@@H](O)[C@H]1C(=O)N[C@@H](CC)C(=O)N(C)[C@H](C)C(=O)N(CC)[C@@H](C(C)C)C(=O)N[C@@H](C(C)C)C(=O)N(C)[C@@H](CC(C)C)C(=O)N[C@@H](C)C(=O)N[C@H](C)C(=O)N(C)[C@@H](CC(C)C)C(=O)N(C)[C@@H](CC(C)C)C(=O)N(C)[C@@H](C(C)C)C(=O)N1C , please?
H

---

# assay: in vitro
# measurement-setup: human, caco-2
measured-quantity: selectivity ratio
Lab note: jot down the number only; don't add units.

Need selectivity ratio of CCC(CC)COC(=O)[C@H](C)N[P@](=O)(OC[C@H]1O[C@@](C#N)(c2ccc3c(N)ncnn23)[C@H](O)[C@@H]1O)Oc1ccccc1 , thanks.
3400

---

# Test system: SARS-CoV-2
# assay: microbe, parasite or virus in culture
# measurement-setup: Severe acute respiratory syndrome coronavirus 2, Caco-2, 48 h
Assign pIC50 to each entry below.
Conceptually, pIC50 converts a concentration in mol/L into minus its log10.

Need pIC50 of C/C=C/C[C@@H](C)[C@@H](O)[C@H]1C(=O)N[C@@H](CC)C(=O)N(C)[C@H](C)C(=O)N(CC)[C@@H](C(C)C)C(=O)N[C@@H](C(C)C)C(=O)N(C)[C@@H](CC(C)C)C(=O)N[C@@H](C)C(=O)N[C@H](C)C(=O)N(C)[C@@H](CC(C)C)C(=O)N(C)[C@@H](CC(C)C)C(=O)N(C)[C@@H](C(C)C)C(=O)N1C , thanks.
5.51

Could you do the same for Nc1nccc(-c2c(-c3ccc(F)cc3)ncn2C2CCCCC2)n1 , please?
4.72

Could you do the same for CCCC[C@@]1(C2CCCC2)Cc2cc(OCCCC(=O)O)c(Cl)c(Cl)c2C1=O , please?
4.89

Could you do the same for CCCCCCCCCCCCCCCCCC[S+](CCC)c1ccccc1C(=O)OCC (centres undefined) , please?
6.11

Could you do the same for C=C(c1ccccc1OCc1cccc(Cl)c1)n1ccnc1 , please?
4.72

Could you do the same for CC(C)(C)c1ccc(/C=C/C(=O)Nc2ccc3c(c2)OCCO3)cc1 , please?
4.82

Could you do the same for Cc1nn(C)c2nc(NNC(=O)Nc3cc(Cl)nc(Cl)c3)cc(C(C)C)c12 , please?
5.22

Could you do the same for FC(F)(F)Oc1ccc2nc(-c3ccc(OCCOCCOc4ccc(-c5nc6ccc(OC(F)(F)F)cc6[nH]5)nc4)cn3)[nH]c2c1 , please?
6.72

Could you do the same for Nc1nc2c(ncn2[C@@H]2O[C@H](CO)[C@@H](O)[C@H]2O)c(=S)[nH]1 , please?
6.11

Could you do the same for CCS(=O)(=O)N(Cc1cccnc1)c1cccc(-c2ccc(C#N)cc2)c1 , please?
4.77

Could you do the same for CCCCCCCCCCCCOCCOCCOCCOCCOCCOCCOCCOCCOCCO , please?
6.66

Could you do the same for Cn1cc(-c2ccc3c(c2)CCN3C(=O)Cc2cccc(C(F)(F)F)c2)c2c(N)ncnc21 , please?
6.60

Could you do the same for COc1cc2ncc(-c3ccccc3)nc2cc1OC , please?
6.70

Could you do the same for CCC(CC)COC(=O)[C@H](C)N[P@](=O)(OC[C@H]1O[C@@](C#N)(c2ccc3c(N)ncnn23)[C@H](O)[C@@H]1O)Oc1ccccc1 , please?
6.12

Could you do the same for N=C(Nc1ccc(I)cc1)NC1C2CC3CC(C2)CC1C3 (centres undefined) , please?
5.22

Could you do the same for CCOC(=O)c1ncc2[nH]c3ccc(OCc4ccccc4)cc3c2c1COC , please?
5.87

Could you do the same for Cc1cccc2c1CC[C@H](CN1CCC(c3c(Cl)cccc3Cl)CC1)C[C@@H]2O , please?
6.11

Could you do the same for COC(=O)C[C@@](O)(CCC(C)(C)O)C(=O)O[C@@H]1C(OC)=C[C@]23CCCN2CCc2cc4c(cc2[C@@H]13)OCO4 , please?
4.72

---

# assay: in vitro
# measurement-setup: human, Caco-2 cells
Assign selectivity ratio to each entry below.

Need selectivity ratio of CC(C)(C)c1ccc(/C=C/C(=O)Nc2ccc3c(c2)OCCO3)cc1 , thanks.
1

Could you do the same for C/C(=N\NC(=S)N1CCC1)c1ccccn1 , please?
1

Could you do the same for Cc1nn(C)c2nc(NNC(=O)Nc3cc(Cl)nc(Cl)c3)cc(C(C)C)c12 , please?
3

Could you do the same for CCS(=O)(=O)N(Cc1cccnc1)c1cccc(-c2ccc(C#N)cc2)c1 , please?
1

Could you do the same for Cc1cccc2c1CC[C@H](CN1CCC(c3c(Cl)cccc3Cl)CC1)C[C@@H]2O , please?
5

Could you do the same for Cn1cc(-c2ccc3c(c2)CCN3C(=O)Cc2cccc(C(F)(F)F)c2)c2c(N)ncnc21 , please?
> 100

Could you do the same for CCOC(=O)c1ncc2[nH]c3ccc(OCc4ccccc4)cc3c2c1COC , please?
1

Could you do the same for Nc1nc2c(ncn2[C@@H]2O[C@H](CO)[C@@H](O)[C@H]2O)c(=S)[nH]1 , please?
1

Could you do the same for FC(F)(F)Oc1ccc2nc(-c3ccc(OCCOCCOc4ccc(-c5nc6ccc(OC(F)(F)F)cc6[nH]5)nc4)cn3)[nH]c2c1 , please?
35

---

# assay: in vitro
# measurement-setup: human, Caco-2 cells
measured-quantity: selectivity ratio
Lab note: jot down the number only; don't add units.

Need selectivity ratio of CCCC[C@@]1(C2CCCC2)Cc2cc(OCCCC(=O)O)c(Cl)c(Cl)c2C1=O , thanks.
2

Could you do the same for N=C(Nc1ccc(I)cc1)NC1C2CC3CC(C2)CC1C3 (stereo not given) , please?
2

Could you do the same for CCCCCCCCCCCCCCCCCC[S+](CCC)c1ccccc1C(=O)OCC (stereo not given) , please?
1

Could you do the same for C=C(c1ccccc1OCc1cccc(Cl)c1)n1ccnc1 , please?
2
